The values you see were collected from ChEMBL document CHEMBL4765460.

tested on: Trypanosoma brucei rhodesiense; experiment: Trypanocidal activity against Trypanosoma brucei rhodesiense STIB900 trypomastigotes incubated for 72 hrs by Alamar blue assay; assay type: functional, organism-based; settings: STIB900, 72 h, read-out: IC50
Assign pIC50 to each entry below.
Give bare numbers, as −log10 of the molar value.

Below are worked cases with known answers.
O=C1C=C(c2ccco2)C(=O)c2ccccc21 | 6.89
O=C1C=C(c2ccc(Cl)nc2)C(=O)c2ccccc21 | 5.66
O=C1C=C(c2ccccc2)C(=O)c2ccccc21 | 7.22
O=C1C=C(c2ccc(OC(F)(F)F)cc2)C(=O)c2ccccc21 | 5.63
N#Cc1ccc(C2=CC(=O)c3ccccc3C2=O)cc1 | 6.55
CC(C)c1ccc(C2=CC(=O)c3ccccc3C2=O)cc1 | 5.84

Parameter requested: pIC50. Apply to each item below.
1. O=C1C=C(c2cc3ccccc3o2)C(=O)c2ccccc21
2. CS(=O)(=O)Nc1cccc(C2=CC(=O)c3ccccc3C2=O)c1
3. O=C1C=C(c2ccc(C(F)(F)F)cc2)C(=O)c2ccccc21
4. O=C1C=C(c2ccc(F)nc2)C(=O)c2ccccc21

5.87
6.70
7.10
6.85

List pIC50 for every entry below, keeping the order given.
1. Cc1ccc(C2=CC(=O)c3ccccc3C2=O)cc1
2. O=C1C=C(c2cccc(OC(F)(F)F)c2)C(=O)c2ccccc21

[7.10, 5.74]
